B1: TPR 5TU (parent)
chain: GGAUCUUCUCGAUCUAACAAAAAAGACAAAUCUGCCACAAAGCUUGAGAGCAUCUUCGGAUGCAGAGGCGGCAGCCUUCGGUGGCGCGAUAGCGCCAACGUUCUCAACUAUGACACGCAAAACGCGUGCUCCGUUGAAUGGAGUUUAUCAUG

Variants of: B1
Assay: polymerase ribozyme fitness, log enrichment relative to wild type (log ratio); higher = more active; in vitro selection for triplet polymerase activity
Fewer inactive variants are shown than the library holds.
Classification field: enter label 1 for polymerase ribozyme fitness (log ratio) values not below -2, label 0 for values below it.

Please indicate if the recorded polymerase ribozyme fitness (log ratio) for A12G A21U C27A G48C A49C C51A G84A C129A meets or exceeds -2.
label 0

Please indicate if the recorded polymerase ribozyme fitness (log ratio) for A40U G84U C85A meets or exceeds -2.
label 1

Please indicate if the recorded polymerase ribozyme fitness (log ratio) for G84U G100A A106U A137C meets or exceeds -2.
label 0

Please indicate if the recorded polymerase ribozyme fitness (log ratio) for G48A U55A C57G A66U G83C U90A C108U G124U meets or exceeds -2.
label 0

Please indicate if the recorded polymerase ribozyme fitness (log ratio) for U61A G143C meets or exceeds -2.
label 0

Please indicate if the recorded polymerase ribozyme fitness (log ratio) for G83C C93U meets or exceeds -2.
label 0

Please indicate if the recorded polymerase ribozyme fitness (log ratio) for A21G A40U U56A C132A meets or exceeds -2.
label 0

Please indicate if the recorded polymerase ribozyme fitness (log ratio) for U31A U55G C93G A110C A115U C123G meets or exceeds -2.
label 0

Please indicate if the recorded polymerase ribozyme fitness (log ratio) for A37C A49G C93U meets or exceeds -2.
label 0

Please indicate if the recorded polymerase ribozyme fitness (log ratio) for G46A A49C U101G meets or exceeds -2.
label 0

Please indicate if the recorded polymerase ribozyme fitness (log ratio) for U82A C103G A113U A137C U148A meets or exceeds -2.
label 0

Please indicate if the recorded polymerase ribozyme fitness (log ratio) for G80A C132U meets or exceeds -2.
label 1

Please indicate if the recorded polymerase ribozyme fitness (log ratio) for A37G C51U C72U C95A A138U G143U meets or exceeds -2.
label 0

Please indicate if the recorded polymerase ribozyme fitness (log ratio) for U55C U109G meets or exceeds -2.
label 1

Please indicate if the recorded polymerase ribozyme fitness (log ratio) for C10U A22U A29G U53G C75A G83A A106U A150C meets or exceeds -2.
label 0

Please indicate if the recorded polymerase ribozyme fitness (log ratio) for G50C C54U C85U C125U meets or exceeds -2.
label 0

Please indicate if the recorded polymerase ribozyme fitness (log ratio) for C14G U33C U56A C85A C99G G117U C123U meets or exceeds -2.
label 0

Please indicate if the recorded polymerase ribozyme fitness (log ratio) for U53G A110G G117A U148A meets or exceeds -2.
label 0

Please indicate if the recorded polymerase ribozyme fitness (log ratio) for A23U C85U meets or exceeds -2.
label 0

Please indicate if the recorded polymerase ribozyme fitness (log ratio) for A21G U77A A91G meets or exceeds -2.
label 0

Please indicate if the recorded polymerase ribozyme fitness (log ratio) for A19C A24G C36U C57A U111G A121G meets or exceeds -2.
label 0

Please indicate if the recorded polymerase ribozyme fitness (log ratio) for A23G meets or exceeds -2.
label 1

Please indicate if the recorded polymerase ribozyme fitness (log ratio) for U44A C87A U90C C93G C105G A122G meets or exceeds -2.
label 0

Please indicate if the recorded polymerase ribozyme fitness (log ratio) for A39U G59C G83U A147U meets or exceeds -2.
label 0

Please indicate if the recorded polymerase ribozyme fitness (log ratio) for A21G C38U meets or exceeds -2.
label 1

Please indicate if the recorded polymerase ribozyme fitness (log ratio) for U77G A89G C95G C105G C108G meets or exceeds -2.
label 0

Please indicate if the recorded polymerase ribozyme fitness (log ratio) for A23C C27G U61A U77A A91U G136C meets or exceeds -2.
label 0

Please indicate if the recorded polymerase ribozyme fitness (log ratio) for C132U meets or exceeds -2.
label 1

Please indicate if the recorded polymerase ribozyme fitness (log ratio) for G59U A97C C99G meets or exceeds -2.
label 0

Please indicate if the recorded polymerase ribozyme fitness (log ratio) for A17U G50U C63U C93U C103U G126A C132U meets or exceeds -2.
label 0

Please indicate if the recorded polymerase ribozyme fitness (log ratio) for A91U G92U C132A meets or exceeds -2.
label 0

Please indicate if the recorded polymerase ribozyme fitness (log ratio) for U6G U53A meets or exceeds -2.
label 1

Please indicate if the recorded polymerase ribozyme fitness (log ratio) for C63U C85U C95A meets or exceeds -2.
label 1

Please indicate if the recorded polymerase ribozyme fitness (log ratio) for C38G C54G C76G A107U U146G meets or exceeds -2.
label 0

Please indicate if the recorded polymerase ribozyme fitness (log ratio) for C14U G50C meets or exceeds -2.
label 0

Please indicate if the recorded polymerase ribozyme fitness (log ratio) for C14A A150G meets or exceeds -2.
label 0

Please indicate if the recorded polymerase ribozyme fitness (log ratio) for A26U G42U meets or exceeds -2.
label 0

Please indicate if the recorded polymerase ribozyme fitness (log ratio) for G11U G34A G50A C85U U90C G143A meets or exceeds -2.
label 0

Please indicate if the recorded polymerase ribozyme fitness (log ratio) for G81A C87U A97U meets or exceeds -2.
label 1

Please indicate if the recorded polymerase ribozyme fitness (log ratio) for U56G C79U U90A A107U C114G meets or exceeds -2.
label 0

Please indicate if the recorded polymerase ribozyme fitness (log ratio) for U31C A47G A49U G94A A119G G136C meets or exceeds -2.
label 0

Please indicate if the recorded polymerase ribozyme fitness (log ratio) for C96U A137U meets or exceeds -2.
label 0

Please indicate if the recorded polymerase ribozyme fitness (log ratio) for A41U U55A C79U G83A meets or exceeds -2.
label 0

Please indicate if the recorded polymerase ribozyme fitness (log ratio) for G34A U102G meets or exceeds -2.
label 0

Please indicate if the recorded polymerase ribozyme fitness (log ratio) for U77G G81A A97G C99G U101C G141U A142G meets or exceeds -2.
label 0

Values from the RNAGym collection of RNA variant scans (doi:10.1073/pnas.2313332121)
